Entry source: PubChem BioAssay (NCI)

System: NCI-H23 lung
procedure_text: NCI tumour cell line growth inhibition, 48 h
measured_quantity: TGI (µM)
Give bare numbers, in µM.

Before answering, review these 3 worked examples.
[
  {
    "compound": "[Au+].c1c[n-]cn1.c1ccc([PH+](c2ccccc2)c2ccccc2)cc1",
    "TGI (µM)": 25.1
  },
  {
    "compound": "O=C1C(=Cc2ccc([N+](=O)[O-])o2)C(=O)N(CCc2ccccc2)S(=O)(=O)N1CCc1ccccc1",
    "TGI (µM)": 31.9
  },
  {
    "compound": "O=C(CBr)NCCc1c[nH]c2ccccc12",
    "TGI (µM)": 3.19
  }
]

For each of the compounds below, note its TGI.
1. O=[N+]([O-])c1cccc([I+]c2ccccc2)c1
2. Cc1nc2cc(Nc3nc(Nc4ccc(F)cc4)nc(N4CCCC4)n3)ccc2n1Cc1ccccc1
3. Clc1ccc(Nc2ncnc3c2sc2ncccc23)c(Cl)c1
4. COc1c(C)c(C/C=C(\C)CCCCO)c(OC)c2ccccc12
5. NC(CSC1(c2ccc(Cl)cc2)c2ccccc2-c2ccccc21)C(=O)O (centres undefined)
6. Cc1cc2nc3c4cc([N+](=O)[O-])ccc4n(CCN(C)C)c3nc2cc1C
7. NCCCCCCCCCn1c2c(c3ccccc3c1=O)C(=O)c1ccccc1-2
8. O=P(Nc1cccc(Cl)c1)(Oc1ccccc1)N(CCCl)CCCl (centres undefined)

Given back:
1: 31.2; 2: 5.31; 3: 1.47; 4: 94.2; 5: 41.1; 6: 2.58; 7: 17; 8: 31.8

* * *

Test system: SN12C renal
procedure_text: NCI tumour cell line growth inhibition, 48 h
Assignment: determine reported TGI for the given molecules.

For each of the molecules below, note its TGI.
1. Cc1csc2c(=O)n(COCc3ccccc3)c(=O)[nH]c12
2. CC1(C)OC2OC(C(=O)c3ccccc3)C3OC(C)(C)OC3C2O1 (stereo unspecified)
3. N#CCN1CCCN(CC#N)CCN(CC#N)CCCN(CC#N)CC1
4. N#CC(C#N)C1CN2CCC1CC2 (stereo unspecified)
5. C1C[S][Ge]2([S]CCS1)[S]CCSCC[S]2
6. CCCCCCn1c2c(c3c(O)cccc31)C(=O)c1ccccc1-2

Given back:
> 100 µM
> 100 µM
> 100 µM
> 100 µM
> 100 µM
32 µM

* * *

Test system: HL-60(TB) leukemia
procedure_text: NCI tumour cell line growth inhibition, 48 h; in the data active means GI50 below about 0.43 µM; inactive means the rest
Log the outcome using a class from active, inactive

These solved cases illustrate the format of a correct answer.
[
  {
    "compound": "Nc1nc(Cl)nc2c1ncn2C1OC(CO)C(O)C1O (stereo not drawn)",
    "assigned_label": "active"
  },
  {
    "compound": "Cn1cc(-c2ccc3nnc(C(F)(F)c4ccc5ncccc5c4)n3n2)cn1",
    "assigned_label": "inactive"
  },
  {
    "compound": "Cc1cc2nc3c4cc([N+](=O)[O-])ccc4n(CCN(C)C)c3nc2cc1C",
    "assigned_label": "inactive"
  },
  {
    "compound": "CN1CCN(Cn2nc(-c3cc(F)c(Cl)cc3Cl)oc2=S)CC1",
    "assigned_label": "inactive"
  },
  {
    "compound": "N/C(=N\\C(N)=N\\c1nc2ccccc2s1)c1ccnc(Br)c1",
    "assigned_label": "inactive"
  },
  {
    "compound": "CCN(CC)CC(O)c1cc(-c2ccc(Cl)cc2)nc2cc(Cl)ccc12 (stereo not drawn)",
    "assigned_label": "inactive"
  },
  {
    "compound": "CCN(CC)CCNC(=O)C(Cl)=C1C(Cl)=C(Cl)C(Cl)=C1Cl",
    "assigned_label": "inactive"
  }
]

Asked: Dear colleague, could you share the recorded outcome for `Cc1nc2cc(Nc3nc(Nc4ccc(F)cc4)nc(N4CCCC4)n3)ccc2n1Cc1ccccc1` when you have a moment?
Given back: inactive

* * *

Test system: UACC-257 melanoma
procedure_text: NCI tumour cell line growth inhibition, 48 h
measured_quantity: TGI

Before answering, review these 5 worked examples.
[
  {
    "compound": "CN(CC1NCCCC1O)C12CC3CC(CC(C3)C1)C2 (stereo not given)",
    "TGI": "> 100 µM"
  },
  {
    "compound": "CN1c2ccccc2S(=O)(=O)n2c(COc3ccccc3)nnc21",
    "TGI": "> 100 µM"
  },
  {
    "compound": "CCOC(=O)CP(=S)(S)c1ccccc1 (stereo not given)",
    "TGI": "> 100 µM"
  },
  {
    "compound": "O=C(NCCCl)NCc1ccccc1",
    "TGI": "> 100 µM"
  },
  {
    "compound": "COCC1N=C(c2cc(OC)c(OC)c(OC)c2-c2cc3c(cc2[C@@H](C)O)OCO3)O[C@H]1c1ccccc1 (stereo not given in full)",
    "TGI": "> 100 µM"
  }
]

For each of the compounds below, note its TGI.
1. Cn1c(=O)oc2cc(C(=S)N3CCCCC3)ccc21
2. COc1c(C)c(C/C=C(\C)CCCCO)c(OC)c2ccccc12
3. O=C(O)CCCc1cc2c(s1)-c1cccc3cccc-2c13
4. N#Cc1c(O)c(C=O)c(=O)n2c1[nH]c1ccccc12
5. CC/C(=C(/CC)c1ccc(O)cc1)c1ccc(O)cc1
6. O=C1NC(Cc2ccccc2)C(=O)N2CCCC12 (stereo not given)
7. O=C1C=CC(=O)[C@H]2C3C=CC(C4C3C3(Cl)C(Cl)=C(Cl)[C@]4(Cl)C3(Cl)Cl)[C@@H]12 (stereo not given in full)

Given back:
1. > 100 µM
2. > 100 µM
3. 53.9 µM
4. > 100 µM
5. 22.7 µM
6. > 100 µM
7. 6.23 µM

For each of the compounds below, note its TGI.
1. COC(=O)[C@@H](NC(=O)c1ccc(CNC(=O)/C(C)=C/c2ccccc2)cc1)C(C)C
2. O=C1CCc2ccccc2O1
3. COc1cc(C2c3cc4c(cc3OC(NNc3ccccc3)C2C)OCO4)cc(OC)c1O (stereo not given)
4. O=C(NCCC1CN(S(=O)(=O)C(F)(F)F)c2ccccc21)OCc1ccccc1 (stereo not given)
5. Cc1nc(-n2nc(-c3ccccc3)cc2-c2ccccc2)sc1C(/C=C/c1ccc([N+](=O)[O-])cc1)=N/NC(N)=S
6. O=[P+](O)c1cccnc1

Given back:
1: 39 µM; 2: > 100 µM; 3: 20 µM; 4: > 100 µM; 5: > 100 µM; 6: > 100 µM

For each of the compounds below, note its TGI.
1. COc1ccc(C2NC3=C(CCCC3)N2)cc1
2. Brc1ccc(C[N+]23CN4CN(CN(C4)C2)C3)cc1

Given back:
> 100 µM
> 100 µM

* * *

Tested on: NCI-H226 lung
procedure_text: NCI tumour cell line growth inhibition, 48 h; in the data active = GI50 below about 0.43 µM; inactive = the rest
Log the outcome using a class from T (active), F (inactive)

[
  {
    "compound": "[Au+].c1c[n-]cn1.c1ccc([PH+](c2ccccc2)c2ccccc2)cc1",
    "assigned_label": "F"
  }
]

Asked: Dear colleague, could you share the recorded outcome for O=C(NC(Cc1ccccc1)C(=O)CCl)OCc1ccccc1 (centres undefined) when you have a moment?
Given back: F

Asked: Dear colleague, could you share the recorded outcome for Cc1ccnc(NC(c2ccccc2)c2ccc3cccnc3c2O)c1 (centres undefined) when you have a moment?
Given back: F

Asked: Dear colleague, could you share the recorded outcome for `CN1CCN(Cn2nc(-c3cc(F)c(Cl)cc3Cl)oc2=S)CC1` when you have a moment?
Given back: F

Asked: Dear colleague, could you share the recorded outcome for COC1C(C)OC(OC2CC(C)(O)Cc3cc4c(c(O)c32)C(=O)c2c(O)cc3c(c2C4=O)OC2OC3(C)C(O)C(N(C)C)C2O)C(OC)C1(C)OC (centres undefined) when you have a moment?
Given back: T

Asked: Dear colleague, could you share the recorded outcome for `Cn1c(=O)c(-c2c(Cl)cccc2Cl)cc2cnc(Nc3ccc(I)cc3)nc21` when you have a moment?
Given back: T

Asked: Dear colleague, could you share the recorded outcome for `COc1cccc(/C=C2\CCc3ccccc3C2=O)c1` when you have a moment?
Given back: F

Asked: Dear colleague, could you share the recorded outcome for `Cn1cc(-c2ccc3nnc(C(F)(F)c4ccc5ncccc5c4)n3n2)cn1` when you have a moment?
Given back: F

Asked: Dear colleague, could you share the recorded outcome for `COc1ccc2c(c1)C(=O)c1c-2c(OCCN2CCCCC2)nc2ccc(OC)cc12` when you have a moment?
Given back: F

* * *

Assignment: determine reported TGI for the given molecules.
Test system: BT-549 breast
procedure_text: NCI tumour cell line growth inhibition, 48 h

Before answering, review these 2 worked examples.
[
  {
    "molecule": "Oc1[nH]c2ccccc2c1/C=c1/ccc2c(c1)N=C(c1cc(F)cc(F)c1)N=2",
    "result": "12.1 µM"
  },
  {
    "molecule": "CN(C)C=Nc1c2c(nc3ccccc13)CCCC2",
    "result": "> 100 µM"
  }
]

For each of the molecules below, note its TGI.
1. CCOC(=O)[C@H](CO)Nc1c(O)c2c(c(O)c1Cl)C(=O)C=CC2=O
2. COc1cc(/C=C/C2=NN(c3cccc(S(=O)(=O)O)c3)C3(C2)SCC(=O)N3c2nc3ccccc3s2)cc(OC)c1OC (stereo not given)

Given back:
> 10 µM
> 100 µM

Asked: Looking for the measured TGI of O=C(NCCC1CN(S(=O)(=O)C(F)(F)F)c2ccccc21)OCc1ccccc1 (stereo not given) , can you help?
Given back: > 100 µM
